# System: fibrin-induced microglia activation
# ASSAY_NOTES: Image-based assay of fibrin-induced microglia activation (HTS and dose response)
# Type: cell-based, rat
Where a name gives a salt, the structure may show the parent alone.

MOLECULE	Fibrin Selectivity (LOG10)
NCCc1cc[nH]n1 [Betazole hydrochloride, reference compound]	0.22
COC(=O)Nc1nc2ccc(C(=O)c3ccccc3)cc2[nH]1 [Mebendazole, reference compound]	1.49
O=C([O-])C[C@H](O)C[C@H](O)/C=C/c1c(C2CC2)nc2ccccc2c1-c1ccc(F)cc1.O=C([O-])C[C@H](O)C[C@H](O)/C=C/c1c(C2CC2)nc2ccccc2c1-c1ccc(F)cc1.[Ca+2] [Pitavastatin calcium, reference compound]	0.61

###

# Tested on: primary rat microglia
# ASSAY_NOTES: Cell toxicity (dead cells, size <150 μm2) in LPS assay
# ASSAY_SETUP: primary HTS, 10 μM, LPS assay, dead cells size <150 μm2

COMPOUND	LPS % cell toxicity
Nc1c(CC(=O)O)cccc1C(=O)c1ccc(Br)cc1	0%
COc1ccc(O)c(C(C)(C)C)c1 [Butylated Hydroxyanisole]	0%
CC(=O)OCC1=C(C(=O)[O-])N2C(=O)[C@@H](NC(=O)CCCC(N)C(=O)O)[C@H]2SC1.[Na+] (stereo partly shown) [Cephalosporin C Sodium]	0%
Cc1ccc(S(=O)(=O)[N-]Cl)cc1.[Na+]	0%
CO/N=C(\C(=O)N[C@@H]1C(=O)N2C(C(=O)O)=C(COC(C)=O)CS[C@H]12)c1csc(N)n1 [Cefotaxime Sodium]	0%
Cn1nnnc1SCC1=C(C(=O)O)N2C(=O)[C@@H](NC(=O)[C@H](O)c3ccccc3)[C@H]2SC1 [Cefamandole Sodium]	0%
CCCCNc1cc(C(=O)O)cc(S(N)(=O)=O)c1Oc1ccccc1 [Bumetanide]	1%
CC(C)(C)CC(C)(C)c1cc(Cc2cc(C(C)(C)CC(C)(C)C)cc(-n3nc4ccccc4n3)c2O)c(O)c(-n2nc3ccccc3n2)c1	0%
CCCC(C)(COC(N)=O)COC(=O)NC(C)C (stereo not shown)	0%
CC(C)CCC[C@@H](C)[C@H]1CC[C@H]2[C@@H]3CC=C4C[C@@H](O)CC[C@]4(C)[C@H]3CC[C@]12C	0%
CC1(C)[C@@H](OC(=O)CCC(=O)O)CC[C@]2(C)[C@H]3C(=O)C=C4[C@@H]5C[C@@](C)(C(=O)O)CC[C@]5(C)CC[C@@]4(C)[C@]3(C)CC[C@@H]12 [Carbenoxolone Sodium]	0%
C=C1/C(=C\C=C2/CCC[C@]3(C)[C@@H]([C@H](C)CCCC(C)(C)O)CC[C@@H]23)C[C@@H](O)C[C@@H]1O	1%
Oc1ccc(Cl)c2cccnc12	0%
O=P(O)(O)C(Cl)(Cl)P(=O)(O)O [Clodronate]	0%
O=C(O)C1=C(CSc2nnnn2CS(=O)(=O)O)CS[C@@H]2[C@H](NC(=O)[C@H](O)c3ccccc3)C(=O)N12 [Cefonicid Sodium]	0%
CN(C)CCC(c1ccc(Br)cc1)c1ccccn1 (stereo not shown)	−1%
CO/N=C(\C(=O)N[C@@H]1C(=O)N2C(C(=O)O)=C(COC(C)=O)CS[C@H]12)c1csc(N)n1 [Cefotaxime]	0%
OCc1ccccc1	0%
Cc1ccc2c(Br)cc(Br)c(OC(=O)c3ccccc3)c2n1	0%

###

LPS % cell toxicity reference
# Test system: primary rat microglia
# ASSAY_SETUP: rat
Counter-ions that a name gives are not always drawn.
READOUT: LPS % cell toxicity (%)

MOLECULE	ASSAY_VALUE
[H]/N=C(/N)N[C@H]1[C@H](O)[C@@H](O)[C@H](O[C@@H]2O[C@@H](C)[C@](O)(C=O)[C@H]2O[C@@H]2O[C@@H](CO)[C@H](O)[C@@H](O)[C@@H]2NC)[C@@H](N/C(N)=N\[H])[C@@H]1O [Streptomycin Sulfate]	0
CC(CN(C)C)CN1c2ccccc2CCc2ccccc21 (stereo not drawn) [Trimipramine maleate, reference compound]	5
CCOC(=O)C1=C(COCCN)NC(C)=C(C(=O)OC)C1c1ccccc1Cl (stereo not drawn)	2
CO[C@H]1C[C@@H]2CC[C@@H](C)[C@@](O)(O2)C(=O)C(=O)N2CCCC[C@H]2C(=O)O[C@H]([C@H](C)C[C@@H]2CC[C@@H](O)[C@H](OC)C2)CC(=O)[C@H](C)/C=C(\C)[C@@H](O)[C@@H](OC)C(=O)[C@H](C)C[C@H](C)/C=C/C=C/C=C/1C [Rapamycin, reference compound]	2
CN(C)CCC(c1ccccc1)c1ccccn1 (stereo not drawn)	0
CC(=O)[C@H]1CC[C@H]2[C@@H]3CC=C4C[C@@H](OC(=O)CCC(=O)O)CC[C@]4(C)[C@H]3CC[C@]12C [Pregnenolone Succinate]	1
